Assay: Stability of cannabinoid and Vitamin E components of Beverage 1 (AB White) stored at 8° C. and 21-25° C., LCMSMS over 570 days
Assay type: physicochemical
Conditions: beverage stored at 21-25° C., day 8
measured_endpoint: Stability in AB White, 21-25° C. (content by LCMSMS) (µg/mL)
Quick note: give the figure in µg/mL, leave out the unit.

Some compounds with known Stability in AB White, 21-25° C. (content by LCMSMS) results, for comparison:
{"compound": "C=C(C)[C@@H]1CCC(C)=C[C@H]1c1c(O)cc(CCCCC)c(C(=O)O)c1O", "value_units": "µg/mL", "result": 1.77}
{"compound": "CCCCCc1cc(O)c2c(c1)OC1(C)CCC3C1C2C3(C)C (stereo not shown)", "value_units": "µg/mL", "result": 0.542}
{"compound": "CCCc1cc(O)c2c(c1)OC(C)(C)[C@@H]1CCC(C)=C[C@@H]21 [THCV, delta-9-tetrahydrocannabivarin]", "value_units": "µg/mL", "result": 3.63}

Shift focus to the following entry.
State, in one line, measured Stability in AB White, 21-25° C. (content by LCMSMS) of "CCCCCc1cc(O)c2c(c1)OC(C)(C)c1ccc(C)cc1-2" 2.71

###

Assay: Stability of cannabinoid and Vitamin E components of Beverage 1 (AB White) stored at 8° C. and 21-25° C., LCMSMS over 570 days
Assay type: physicochemical
Conditions: beverage stored at 21-25° C., day 90
Label scheme for Stability in AB White, 21-25° C. (content by LCMSMS): lower than 2 µg/mL is not satisfied, 2 µg/mL and above is satisfied.

These recorded examples may help you get a feel for the data.
{"molecule": "CCCCCc1cc2c(c(O)c1C(=O)O)[C@@H]1C=C(C)CC[C@H]1C(C)(C)O2 [D9 THCA, delta-9-tetrahydrocannabinolic acid]", "category": "not satisfied"}
{"molecule": "C=C(C)[C@@H]1CCC(C)=C[C@H]1c1c(O)cc(CCCCC)c(C(=O)O)c1O", "category": "not satisfied"}
{"molecule": "CCCCCc1cc(O)c2c(c1)OC(C)(C)c1ccc(C)cc1-2", "category": "satisfied"}
{"molecule": "CCCc1cc(O)c2c(c1)OC(C)(C)[C@@H]1CCC(C)=C[C@@H]21 [THCV, delta-9-tetrahydrocannabivarin]", "category": "satisfied"}

Note: attention shifts to another entry.
// inclusive: Stability in AB White, 21-25° C. (content by LCMSMS) at least 2 µg/mL? input: "CCCCCc1cc(O)c(C/C=C(\C)CCC=C(C)C)c(O)c1" satisfied

###

Experiment: Stability of cannabinoid and Vitamin E components of Beverage 2 (AB Red) stored at 8° C. and 21-25° C., LCMSMS over 570 days
Conditions: 21-25° C., 17 days
measured_endpoint: Stability of Cannabinoids in AB Red (µg/mL)
Quick note: give the figure in µg/mL, leave out the unit.

Some compounds with known Stability of Cannabinoids in AB Red results, for comparison:
{"compound": "CCCCCc1cc(O)c2c(c1)OC(C)(CCC=C(C)C)C=C2 (centres unmarked) [CBC, cannabichromene]", "Stability of Cannabinoids in AB Red, µg/mL": 0.28}
{"compound": "CCCCCc1cc(O)c(C/C=C(\\C)CCC=C(C)C)c(O)c1 [CBG, cannabigerol]", "Stability of Cannabinoids in AB Red, µg/mL": 4.63}
{"compound": "CCCCCc1cc(O)c2c(c1)OC(C)(C)[C@@H]1CCC(C)=C[C@@H]21 [D9 THC, delta-9-tetrahydrocannabinol, reference compound]", "Stability of Cannabinoids in AB Red, µg/mL": 12.9}
{"compound": "CCCc1cc(O)c2c(c1)OC(C)(C)[C@@H]1CCC(C)=C[C@@H]21 [THCV, delta-9-tetrahydrocannabivarin]", "Stability of Cannabinoids in AB Red, µg/mL": 3.11}

State, in one line, measured Stability of Cannabinoids in AB Red of C=C(C)[C@@H]1CCC(C)=C[C@H]1c1c(O)cc(CCCCC)c(C(=O)O)c1O [CBDA, cannabidiolic acid] 1.63

These entries and their values trace back to patent US20240415914A1.
